System: hTERT-HMEC
protocol-text: percentage of EdU-negative (G0-arrested) nuclei per well, 72 h; higher = more G0 arrest;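 also: secreted proteins added to cultured cells, EdU pulse at the end, nuclei found by Hoechst imaging, EdU status from nuclear versus surrounding ring intensity ratio, PBS as neutral control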
condition-summary: protein concentration 0.225 µM; reference: sequence is the full UniProt precursor, the tested protein was the secreted form or ectodomain
# percentage of EdU-negative per entry

polymer-sequence	percentage of EdU-negative
MSSFGYRTLTVALFTLICCPGSDEKVFEVHVRPKKLAVEPKGSLEVNCSTTCNQPEVGGLETSLDKILLDEQAQWKHYLVSNISHDTVLQCHFTCSGKQESMNSNVSVYQPPRQVILTLQPTLVAVGKSFTIECRVPTVEPLDSLTLFLFRGNETLHYETFGKAAPAPQEATATFNSTADREDGHRNFSCLAVLDLMSRGGNIFHKHSAPKMLEIYEPVSDSQMVIIVTVVSVLLSLFVTSVLLCFIFGQHLRQQRMGTYGVRAAWRRLPQAFRP	6.02%
MASPGCLWLLAVALLPWTCASRALQHLDPPAPLPLVIWHGMGDSCCNPLSMGAIKKMVEKKIPGIYVLSLEIGKTLMEDVENSFFLNVNSQVTTVCQALAKDPKLQQGYNAMGFSQGGQFLRAVAQRCPSPPMINLISVGGQHQGVFGLPRCPGESSHICDFIRKTLNAGAYSKVVQERLVQAEYWHDPIKEDVYRNHSIFLADINQERGINESYKKNLMALKKFVMVKFLNDSIVDPVDSEWFGFYRSGQAKETIPLQETSLYTQDRLGLKEMDNAGQLVFLATEGDHLQLSEEWFYAHIIPFLG	9.52%

====

Test system: MCF7
protocol-text: percentage of EdU-negative (G0-arrested) nuclei per well, 72 h; higher = more G0 arrest
condition-summary: protein concentration 0.225 µM; reference: sequence is the full UniProt precursor, the tested protein was the secreted form or ectodomain
# percentage of EdU-negative per entry
value-kind: percentage of EdU-negative (%)

polymer-sequence	assay-system	value-kind	unit-symbol	reported
MKTGHFEIVTMLLATMILVDIFQVKAEVLDMADNAFDDEYLKCTDRMEIKYVPQLLKEEKASHQQLDTVWENAKAKWAARKTQIFLPMNFKDNHGIALMAYISEAQEQTPFYHLFSEAVKMAGQSREDYIYGFQFKAFHFYLTRALQLLRKPCEASSKTVVYRTSQGTSFTFGGLNQARFGHFTLAYSAKPQAANDQLTVLSIYTCLGVDIENFLDKESERITLIPLNEVFQVSQEGAGNNLILQSINKTCSHYECAFLGGLKTENCIENLEYFQPIYVYNPGEKNQKLEDHSEKNWKLEDHGEKNQKLEDHGVKILEPTQIPGMKIPEPFPLPEDKSQGNINNPTPGPVPVPGPKSHPSASSGKLLLPQFGMVIILISVSAINLFVAL	MCF7	percentage of EdU-negative	%	27.3
MASRWAVQLLLVAAWSMGCGEALKCYTCKEPMTSASCRTITRCKPEDTACMTTLVTVEAEYPFNQSPVVTRSCSSSCVATDPDSIGAAHLIFCCFRDLCNSEL	MCF7	percentage of EdU-negative	%	26.6
MSFPCKFVASFLLIFNVSSKGAVSKEITNALETWGALGQDINLDIPSFQMSDDIDDIKWEKTSDKKKIAQFRKEKETFKEKDTYKLFKNGTLKIKHLKTDDQDIYKVSIYDTKGKNVLEKIFDLKIQERVSKPKISWTCINTTLTCEVMNGTDPELNLYQDGKHLKLSQRVITHKWTTSLSAKFKCTAGNKVSKESSVEPVSCPEKGLDIYLIIGICGGGSLLMVFVALLVFYITKRKKQRSRRNDEELETRAHRVATEERGRKPHQIPASTPQNPATSQHPPPPPGHRSQAPSHRPPPPGHRVQHQPQKRPPAPSGTQVHQQKGPPLPRPRVQPKPPHGAAENSLSPSSN	MCF7	percentage of EdU-negative	%	26.8
MVLCFPLLLLLLVLWGPVCPLHAWPKRLTKAHWFEIQHIQPSPLQCNRAMSGINNYTQHCKHQNTFLHDSFQNVAAVCDLLSIVCKNRRHNCHQSSKPVNMTDCRLTSGKYPQCRYSAAAQYKFFIVACDPPQKSDPPYKLVPVHLDSIL	MCF7	percentage of EdU-negative	%	25
MDPRLPAWALVLLGPALVFALGPAPTPEMREKLCGHHFVRALVRVCGGPRWSTEARRPATGGDRELLQWLERRHLLHGLVADSNLTLGPGLQPLPQTSHHHRHHRAAATNPARYCCLSGCTQQDLLTLCPY	MCF7	percentage of EdU-negative	%	26.9
MKLAALLGLCVALSCSSAAAFLVGSAKPVAQPVAALESAAEAGAGTLANPLGTLNPLKLLLSSLGIPVNHLIEGSQKCVAELGPQAVGAVKALKALLGALTVFG [Q96QR1]	MCF7	percentage of EdU-negative	%	23.7
MKLAFLFLGPMALLLLAGYGCVLGASSGNLRTFVGCAVREFTFLAKKPGCRGLRITTDACWGRCETWEKPILEPPYIEAHHRVCTYNETKQVTVKLPNCAPGVDPFYTYPVAIRCDCGACSTATTECETI [Q86YW7]	MCF7	percentage of EdU-negative	%	25.8
